Tested on: DeltatarO mutant
Assay remarks: S. aureus survival, RN4220 and DeltatarO strains – OD600, teichoic acid synthesis inhibitors, primary screen (AID 463173)
Run conditions: S. aureus RN4220 wild type/DeltatarO growth, OD600, 18 h, active compounds read low, screened at 18.75 µg/mL (by protocol)
The whole screen tested about 52,000 compounds, of which about 4,300 (8.3%) were called active. The list comes from a sample in which actives are over-represented; it also holds close analogues and randomly drawn compounds.
Mark each entry Fulfilled if its survival sits below 80%, and Not fulfilled for all others.

compound=CCC(CC)C(=O)Nc1nnc(C(C)(C)C)s1 answer_label="Not fulfilled"
compound=CC(C)(C)c1nnc(NC(=O)CS(=O)(=O)Cc2ccccc2)s1 answer_label="Not fulfilled"
compound=Cc1cccc(NC(=O)CCCn2c(C)c3cnn(-c4ccccc4)c(=O)c3c2C)c1C answer_label=Fulfilled
compound=COc1ccc(NC(=O)Cc2coc3cc(C)cc(C)c23)c(OC)c1 answer_label=Fulfilled
compound=CCOC(=O)c1cc(-c2ccc(F)cc2)n(CC(=O)NCc2ccc(OC)cc2)c1C answer_label=Fulfilled
compound=CCOC(=O)c1cc(-c2ccccc2)n(CCC(=O)NCCc2ccc(C)cc2)c1C answer_label=Fulfilled
compound=CCOC(=O)c1cc(-c2ccccc2)n(CCC(=O)Nc2ccc(OC)c(Cl)c2)c1C answer_label="Not fulfilled"
compound=CCS(=O)(=O)c1ncc(N(Cc2ccco2)Cc2ccccc2F)c(C(=O)Nc2cccc(Cl)c2)n1 answer_label=Fulfilled
compound=COc1ccc(-c2cc(C(F)(F)F)nc(SCC(=O)N3CCCCC3)n2)cc1OC answer_label=Fulfilled
compound=Cc1ccc(NC(=O)CN2C=NS(=O)(=O)c3ccccc32)c(C)c1 answer_label="Not fulfilled"
compound=COc1ccc(-c2noc(CCC(=O)Nc3cccc(C)c3C)n2)cc1OC answer_label=Fulfilled
compound=CCOC(=O)c1cc(-c2ccccc2)n(CCC(=O)NCCc2cccc(C)c2)c1C answer_label=Fulfilled
compound="CCCC12CN3CC(C)(CN(C1)C3c1cn(CC)c3ccccc13)C2=O (stereo unspecified)" answer_label="Not fulfilled"
compound=Cc1ccc(NC(=O)c2nc(S(C)(=O)=O)ncc2N(Cc2ccco2)Cc2ccccc2F)c(C)c1 answer_label=Fulfilled
compound=CCOC(=O)c1ccc(NC(=O)CSc2nc3ccccc3c(=O)n2CCNC(C)=O)cc1 answer_label="Not fulfilled"
compound=O=C(Cn1c(=O)n(CCCS(=O)(=O)C2CCCCC2)c(=O)c2ccccc21)Nc1ccccc1C(F)(F)F answer_label="Not fulfilled"
compound=CCc1ccc(CN(Cc2ccco2)c2cnc(S(C)(=O)=O)nc2C(=O)Nc2c(C)cccc2C)cc1 answer_label=Fulfilled
compound=CC(=O)Nc1nc(SCc2ccccc2Cl)n[nH]1 answer_label="Not fulfilled"
compound=Cc1ccc(C#N)c(SCC(=O)O)n1 answer_label="Not fulfilled"
compound=O=C1CNC(=O)N1Cc1ccc(F)cc1 answer_label="Not fulfilled"
compound=COc1ccc(CCNC(=O)c2c(Nc3ccccc3C)sc(C(=O)c3ccccc3)c2N)cc1OC answer_label=Fulfilled
compound=CCOC(=O)c1cc(-c2ccc(C)cc2)n(CCC(=O)Nc2ccc(OC)c(OC)c2)c1C answer_label=Fulfilled
compound=CC1(C)Cc2[nH]c(=S)c(C#N)cc2CO1 answer_label="Not fulfilled"
compound="Fc1ccc(C2=CC(c3ccc(F)cc3)n3c(nc4ccccc43)N2)cc1 (stereo unspecified)" answer_label="Not fulfilled"
compound=Cc1ccc(NC(=O)c2nc(S(C)(=O)=O)ncc2N(Cc2ccc(C(C)(C)C)cc2)Cc2ccco2)cc1C answer_label=Fulfilled
compound=CCOC(=O)c1cc(-c2ccccc2)n(CC(=O)NCc2ccc(C)cc2)c1C answer_label=Fulfilled
compound="COc1ccc(OCC2c3cc(OC)c(OC)cc3CCN2C(=O)c2c(F)cccc2F)cc1 (stereo unspecified)" answer_label="Not fulfilled"
compound=CCOC(=O)c1cc(-c2ccc(F)cc2)n(CCC(=O)NCc2ccccc2OC)c1C answer_label=Fulfilled
compound=CCOC(=O)c1cc(-c2ccc(F)cc2)n(CCC(=O)Nc2ccccc2OC)c1C answer_label="Not fulfilled"
compound=O=c1[nH]c2cc3c(cc2cc1CN(CCO)C(=S)Nc1cccc(Cl)c1)OCO3 answer_label=Fulfilled
compound=Cc1ccc(CN(Cc2ccco2)c2cnc(S(C)(=O)=O)nc2C(=O)Nc2ccccc2Br)o1 answer_label=Fulfilled
compound=CC(C)(C)c1ccc(CN(Cc2ccco2)c2cnc(S(C)(=O)=O)nc2C(=O)Nc2ccc(F)cc2)cc1 answer_label="Not fulfilled"
compound=CCOC(=O)c1cc(-c2ccc(C)cc2)n(CCC(=O)Nc2ccc(C(C)C)cc2)c1C answer_label=Fulfilled
compound=CCOC(=O)c1cc(-c2ccccc2)n(CCC(=O)NCCc2ccccc2)c1C answer_label=Fulfilled
compound="CCC1CCCCN1C(=O)CSc1nc(-c2ccc(OC)c(OC)c2)cc(C(F)(F)F)n1 (stereo unspecified)" answer_label=Fulfilled
compound=CCN1CCN(CCCNC(=O)c2cnn(-c3ccc(OC)cc3)c2C2CCN(C(=O)OC(C)(C)C)CC2)CC1 answer_label="Not fulfilled"

Where these numbers come from: PubChem BioAssay AID463173
